Assay: Cytotoxicity against human HeLa cells by CellTiter-Blue assay
Type: toxicity, cell-based
QUANTITY: CC50

>>> df
                             chemical_smiles  data_value
 0  Cc1ccc(S(=O)(=O)N[C@@H](CCCNC(=N)N)C(=O)N[C@@H](CCCCN)C(=O)N[C@@H](C(N)=O)c2ccccc2)cc1     > 50 µM
 1  N=C(N)NCCC[C@H](NS(=O)(=O)c1ccc(Cl)cc1)C(=O)N[C@@H](CCCCN)C(=O)N[C@@H](C(N)=O)c1ccccc1     > 50 µM
 2  CN([C@@H](CCCNC(=N)N)C(=O)N[C@@H](CCCCN)C(=O)N[C@@H](C(N)=O)c1ccccc1)S(=O)(=O)c1ccccc1     > 50 µM
 3  CN(C)c1cccc2c(S(=O)(=O)N[C@@H](CCCNC(=N)N)C(=O)N[C@@H](CCCCN)C(=O)N[C@@H](C(N)=O)c3ccccc3)cccc12     > 50 µM
 4  Cc1ccc(S(=O)(=O)N(C)[C@@H](Cc2ccc(NC(=N)N)cc2)C(=O)N[C@@H](CCCCN)C(=O)N[C@@H](C(N)=O)c2ccccc2)cc1     > 50 µM
 5  Cc1cc(C)c(S(=O)(=O)N[C@@H](CCCNC(=N)N)C(=O)N[C@@H](CCCCN)C(=O)N[C@@H](C(N)=O)c2ccccc2)c(C)c1     > 50 µM
 6  N=C(N)NCCC[C@H](NS(=O)(=O)C1CCCCC1)C(=O)N[C@@H](CCCCN)C(=O)N[C@@H](C(N)=O)c1ccccc1     > 50 µM
 7  CN([C@@H](Cc1ccc(NC(=N)N)cc1)C(=O)N[C@@H](CCCCN)C(=O)N[C@@H](C(N)=O)c1ccccc1)S(=O)(=O)c1ccccc1     > 50 µM
 8  CN([C@@H](CCCNC(=N)N)C(=O)N[C@@H](CCCCN)C(=O)N[C@H](C(N)=O)c1ccccc1)S(=O)(=O)c1ccccc1     > 50 µM
 9  N=C(N)NCCC[C@H](NC(=O)c1ccccc1)C(=O)N[C@@H](CCCCN)C(=O)N[C@@H](C(N)=O)c1ccc(OCc2ccccc2)cc1     > 50 µM
10  CN([C@@H](Cc1ccc(/C(N)=N/O)cc1)C(=O)N[C@@H](CCCCN)C(=O)N[C@@H](C(N)=O)c1ccccc1)S(=O)(=O)c1ccccc1     > 50 µM
11  CN([C@@H](Cc1ccc(C(=N)N)cc1)C(=O)N[C@@H](CCCCN)C(=O)N[C@@H](C(N)=O)c1ccc(OCc2ccc(C(F)(F)F)cc2)cc1)S(=O)(=O)c1ccccc1     75.3 µM
12  Cc1ccc(S(=O)(=O)N(C)[C@@H](CCCNC(=N)N)C(=O)N[C@@H](CCCCN)C(=O)N[C@@H](C(N)=O)c2ccccc2)cc1     > 50 µM
13  N=C(N)NCCC[C@H](NS(=O)(=O)c1ccccc1)C(=O)N[C@@H](CCCCN)C(=O)N[C@@H](C(N)=O)c1ccccc1     > 50 µM
14  N=C(N)Nc1ccc(C[C@H](NS(=O)(=O)c2ccccc2)C(=O)N[C@@H](CCCCN)C(=O)N[C@@H](C(N)=O)c2ccccc2)cc1     > 50 µM
15  CN([C@@H](Cc1ccc(C(=N)N)cc1)C(=O)N[C@@H](CCCCN)C(=O)N[C@@H](C(N)=O)c1ccc(OCc2ccccc2)cc1)S(=O)(=O)c1ccccc1    > 200 µM
16  N=C(N)NCCC[C@H](NS(=O)(=O)c1ccc([N+](=O)[O-])cc1)C(=O)N[C@@H](CCCCN)C(=O)N[C@@H](C(N)=O)c1ccccc1     > 50 µM
17  CN([C@@H](Cc1ccc(C(=N)N)cc1)C(=O)N[C@@H](CCCCN)C(=O)N[C@@H](C(N)=O)c1ccc(OCc2ccc(Cl)c(Cl)c2)cc1)S(=O)(=O)c1ccccc1     45.3 µM
18  CC(C)c1cc(C(C)C)c(S(=O)(=O)N[C@@H](CCCNC(=N)N)C(=O)N[C@@H](CCCCN)C(=O)N[C@@H](C(N)=O)c2ccccc2)c(C(C)C)c1     > 50 µM
19  CN([C@@H](Cc1ccc(C(=N)N)cc1)C(=O)N[C@@H](CCCCN)C(=O)N[C@@H](C(N)=O)c1ccccc1)S(=O)(=O)c1ccccc1    > 200 µM
